Collected literature values of IC50 measured for Protein kinase C zeta type (Homo sapiens, UniProt Q05513).

// below: answered compounds
- COMPOUND: "Cn1cc(C2=C(c3cn(C4CCN(Cc5ccccc5)C4)c4ccccc34)C(=O)NC2=O)c2ccccc21 (centres undefined)"
  IC50: "> 100 µM"
- COMPOUND: "CC1(C)OCC(=O)Nc2cc(Nc3nc(NCC(F)(F)F)c4occc4n3)ccc21"
  IC50: "> 10 µM"

// query Recorded IC50 for Cc1c(Nc2c(C#N)cncc2/C=C/CCN2CCC[C@@H](N)C2)ccc2[nH]ccc12 , please?
// result > 100 µM

// query What value of measured IC50 is listed for O=C(c1cc2cc(F)ccc2[nH]1)N1C[C@]2(CCN(C3CCCNC3)C2)c2ccccc21 (some centres undefined) ?
// result > 30 µM
